A compilation of log10 IC50 values for GST-Xa-hAAK1 (Homo sapiens (Human)) from the published literature.
outcome measure: log10 IC50 (log10 of the value in nM)

| smiles structure | log10 IC50 |
| --- | --- |
| Cc1nccc(-c2ccc(OC[C@@](C)(N)CC(C)C)c(C(F)(F)F)c2)n1 | -0.22 |
| CC(C)C[C@](C)(N)COc1cnc(-c2ccnc(C(F)F)c2)cc1C(F)F | 0.08 |
| CC(C)C[C@](C)(N)COc1ccc(-c2ccnc3cc(F)cc(F)c23)nc1Cl | 0.54 |
| COC(=O)Nc1nccc(-c2ccc(OC[C@@](C)(N)CC(C)C)cc2)n1 | 0.94 |
| CC(=O)Nc1cc(-c2ccc(OC[C@@H](N)CC(C)C)c(C)c2)ccn1 | -0.38 |
| N[C@H]1CC[C@H](Nc2ccc3ncc(C(=O)Nc4cccc(-c5coc(-c6ccccc6)n5)c4)n3n2)CC1 | 2.19 |
| CC(C)C[C@](C)(N)COc1ncc(-c2ccnc(Cl)c2)cc1C(F)F | 0.46 |
| Cc1cc(-c2cc(Cl)c(OC[C@@](C)(N)CC(C)C)cn2)ccn1 | 0.32 |
| COC(=O)Nc1nccc(-c2cnc(OC[C@@](C)(N)CC(C)C)c(C)c2)n1 | 1.54 |
| CC(=O)Nc1cc(-c2ccc(OC[C@@H](N)CC(C)C)c(C#N)c2)ccn1 | -0.52 |
| CC(C)C[C@](C)(N)COc1ccc(-c2ccnc(C(F)(F)F)n2)cc1Cl | 0.56 |
| CC(=O)Nc1cc(-c2ccc(OC[C@@H](N)CC(C)C)c(C(F)(F)F)c2)ccn1 | -0.30 |
| Cc1nccc(-c2ccc(OC[C@@](C)(N)CC(C)C)c(C(F)(F)F)n2)n1 | 0.38 |
| CC(C)C[C@](C)(N)COc1ccc(-c2ccnc(Cl)c2)nc1C(F)F | 0.73 |
| c1cc2cn[nH]c2cc1-c1cnc2ccc(NC3CCOCC3)nn12 | 1.48 |
| CC(C)C[C@](C)(N)COc1ccc2c(c1)COc1cnc(NS(=O)(=O)C3CC3)cc1-2 | 1.57 |
| COC(=O)Nc1cc(-c2ccc(OC[C@@](C)(N)CC(C)C)c(CF)n2)ccn1 | 0.04 |
| CC(C)C[C@](C)(N)COc1ccc(-c2ccnc3ccccc23)cc1C1CC1 | -1.15 |
| COC(=O)Nc1cc(-c2ccc(OC[C@](N)(CF)CC(C)C)c(C(F)F)n2)ccn1 | 0.30 |
| CC(C)C[C@](C)(N)COc1cnc(-c2ccnc3ccccc23)cc1C(F)F | -0.52 |
| Cc1cc(-c2cnc(OC[C@@](C)(N)CC(C)C)c(F)c2)ccn1 | 2.15 |
| Cc1cc(-c2cc(F)c(OC[C@@](C)(N)CC(C)C)cc2F)ncn1 | 1.80 |
| CC(C)C[C@](C)(N)COc1ccc2c(c1)COc1cnc(NS(C)(=O)=O)cc1-2 | 2.09 |
| CC(C)c1nc(-c2cccc(NC(=O)c3cnc4c(Nc5ccccc5)cc(N[C@H]5CC[C@H](N)CC5)nn34)c2)no1 | 1.00 |
| CC(C)c1nc(-c2cccc(NC(=O)c3cnc4ccc(N[C@H]5CC[C@H](N)CC5)nn34)c2)co1 | 2.20 |
| COC(=O)Nc1cc(-c2ncc(OC[C@@](C)(N)CC(C)C)cn2)ccn1 | 1.90 |
| CC(C)C[C@](C)(N)COc1ccc(-c2ccncc2)cc1C(F)(F)F | -0.19 |
| CC(C)C[C@](C)(N)COc1ccc(-c2ccnc3cc(C#N)ccc23)cc1C(F)(F)F | -0.18 |
| CC(C)C[C@@](N)(CF)COc1ccc(-c2ccnc(C(F)F)c2)nc1C(F)F | 0.94 |
| COC(=O)Nc1cc(-c2ccc(OC[C@@](C)(N)CC(C)C)c(C(F)F)n2)ccn1 | 0.00 |
| COc1cc(-c2cnc(OC[C@@](C)(N)CC(C)C)c(C#N)c2)ccn1 | 1.70 |
| CC(C)C[C@](C)(N)COc1ccc(-c2ccncc2F)cc1C(F)(F)F | -0.11 |
| [2H]C([2H])([2H])n1c(=O)c2cc(OC[C@@](C)(N)CC(C)C)c(Cl)cc2c2ccnc(C)c21 | 0.51 |
| Cc1cc2c(cc1OC[C@@H](N)CC(C)C)c(=O)n(C)c1c(C)nccc21 | 1.15 |
